Data credit: patent US4362725A

# Test system: E. coli R+TEM (β-lactamase carrier)
# method-description: In vitro serial dilution test in the microtiter system (MIC), E. coli R+TEM
# Assay type: cell-based
# applied-conditions: Escherichia coli, read-out: MIC E. coli R + TEM

compound	MIC
CS(=O)(=O)NCCn1nnnc1SCC1=C(C(=O)O)N2C(=O)[C@@H](NC(=O)C(NC(=O)Nc3cnc(Nc4ccc(S(N)(=O)=O)cc4)nc3O)c3ccc(O)cc3)[C@H]2SC1 (stereo partly drawn)	8 µg/mL
C[S+]([O-])CCn1nnnc1SCC1=C(C(=O)O)N2C(=O)[C@@H](NC(=O)C(NC(=O)Nc3cnc(Nc4ccc(S(N)(=O)=O)cc4)nc3O)c3ccc(O)cc3)[C@H]2SC1 (stereo partly drawn)	8 µg/mL
CC(=O)NCCn1nnnc1SCC1=C(C(=O)O)N2C(=O)[C@@H](NC(=O)C(NC(=O)Nc3cnc(Nc4ccc(S(N)(=O)=O)cc4)nc3O)c3ccc(O)cc3)[C@H]2SC1 (stereo partly drawn)	8 µg/mL

---

# Tested on: Pseudomonas aeruginosa hamburgensis
# method-description: In vitro serial dilution test in the microtiter system (MIC), Pseudomonas Hbg.
# Format: cell-based
# applied-conditions: 18 to 20 h at 37° C., read-out: MIC Pseud. aerug. Hbg.
Recorded MIC, one value per entry.

compound	readout-unit	cmp	MIC
Cc1nnc(SCC2=C(C(=O)O)N3C(=O)[C@@H](NC(=O)Cn4cnnn4)[C@H]3SC2)s1 [Cephazolin, reference compound]	µg/mL	>	100
NS(=O)(=O)c1ccc(Nc2ncc(NC(=O)NC(C(=O)N[C@@H]3C(=O)N4C(C(=O)O)=C(CSc5nnnn5CCO)CS[C@H]34)c3ccc(O)cc3)c(O)n2)cc1 (stereo partly drawn)	µg/mL	=	4
CS(=O)(=O)CCn1nnnc1SCC1=C(C(=O)O)N2C(=O)[C@@H](NC(=O)C(NC(=O)Nc3cnc(Nc4ccc(S(N)(=O)=O)cc4)nc3O)c3ccc(O)cc3)[C@H]2SC1 (stereo partly drawn)	µg/mL	=	8
CS(=O)(=O)NCCn1nnnc1SCC1=C(C(=O)O)N2C(=O)[C@@H](NC(=O)C(NC(=O)Nc3cnc(Nc4ccc(S(N)(=O)=O)cc4)nc3O)c3ccc(O)cc3)[C@H]2SC1 (stereo partly drawn)	µg/mL	=	4
CO/N=C(\C(=O)N[C@@H]1C(=O)N2C(C(=O)O)=C(COC(N)=O)CS[C@H]12)c1ccco1 [Cefuroxim, reference compound]	µg/mL	>	100
CC(=O)NCCn1nnnc1SCC1=C(C(=O)O)N2C(=O)[C@@H](NC(=O)C(NC(=O)Nc3cnc(Nc4ccc(S(N)(=O)=O)cc4)nc3O)c3ccc(O)cc3)[C@H]2SC1 (stereo partly drawn)	µg/mL	=	8

---

Entries with their measured MIC, system Staphylococcus aureus SG 511:

molecule	test-system	MIC
NS(=O)(=O)c1ccc(Nc2ncc(NC(=O)NC(C(=O)N[C@@H]3C(=O)N4C(C(=O)O)=C(CSc5nnnn5CCO)CS[C@H]34)c3ccc(O)cc3)c(O)n2)cc1 (stereo partly shown) [Compound 7]	Staphylococcus aureus SG 511	1 µg/mL
Cc1nnc(SCC2=C(C(=O)O)N3C(=O)[C@@H](NC(=O)Cn4cnnn4)[C@H]3SC2)s1 [Cephazolin, reference compound]	Staphylococcus aureus SG 511	0.06 µg/mL
C[S+]([O-])CCn1nnnc1SCC1=C(C(=O)O)N2C(=O)[C@@H](NC(=O)C(NC(=O)Nc3cnc(Nc4ccc(S(N)(=O)=O)cc4)nc3O)c3ccc(O)cc3)[C@H]2SC1 (stereo partly shown) [Compound 21]	Staphylococcus aureus SG 511	1 µg/mL
CO/N=C(\C(=O)N[C@@H]1C(=O)N2C(C(=O)O)=C(COC(N)=O)CS[C@H]12)c1ccco1 [Cefuroxim, reference compound]	Staphylococcus aureus SG 511	1 µg/mL

---

# System: Enterobacter Cloaceae ATCC 13047
Lab note: compare MIC with 0.5 µg/mL, writing yes (1) if less and no (0) if equal or more.

compound	test-system	discrete-label
NS(=O)(=O)c1ccc(Nc2ncc(NC(=O)NC(C(=O)N[C@@H]3C(=O)N4C(C(=O)O)=C(CSc5nnnn5CCO)CS[C@H]34)c3ccc(O)cc3)c(O)n2)cc1 (some centres unmarked) [Compound 7]	Enterobacter Cloaceae ATCC 13047	yes (1)
CS(=O)(=O)NCCn1nnnc1SCC1=C(C(=O)O)N2C(=O)[C@@H](NC(=O)C(NC(=O)Nc3cnc(Nc4ccc(S(N)(=O)=O)cc4)nc3O)c3ccc(O)cc3)[C@H]2SC1 (some centres unmarked) [Compound 36]	Enterobacter Cloaceae ATCC 13047	yes (1)
CC(=O)NCCn1nnnc1SCC1=C(C(=O)O)N2C(=O)[C@@H](NC(=O)C(NC(=O)Nc3cnc(Nc4ccc(S(N)(=O)=O)cc4)nc3O)c3ccc(O)cc3)[C@H]2SC1 (some centres unmarked) [Compound 37]	Enterobacter Cloaceae ATCC 13047	yes (1)
Cc1nnc(SCC2=C(C(=O)O)N3C(=O)[C@@H](NC(=O)Cn4cnnn4)[C@H]3SC2)s1 [Cephazolin, reference compound]	Enterobacter Cloaceae ATCC 13047	no (0)
Cn1c(SCC2=C(C(=O)O)N3C(=O)[C@@H](NC(=O)C(NC(=O)Nc4cnc(Nc5ccc(S(N)(=O)=O)cc5)nc4O)c4ccc(O)cc4)[C@H]3SC2)nnc(O)c1=O (some centres unmarked) [Compound 16]	Enterobacter Cloaceae ATCC 13047	yes (1)
NS(=O)(=O)c1ccc(Nc2ncc(NC(=O)NC(C(=O)N[C@@H]3C(=O)N4C(C(=O)O)=C(CSc5nnnn5CC(=O)O)CS[C@H]34)c3ccc(O)cc3)c(O)n2)cc1 (some centres unmarked) [Compound 5]	Enterobacter Cloaceae ATCC 13047	no (0)
CO/N=C(\C(=O)N[C@@H]1C(=O)N2C(C(=O)O)=C(COC(N)=O)CS[C@H]12)c1ccco1 [Cefuroxim, reference compound]	Enterobacter Cloaceae ATCC 13047	no (0)

---

# Test system: Pseudomonas aeruginosa hamburgensis
# method-description: In vitro serial dilution test in the microtiter system (MIC), Pseudomonas Hbg.
# Type: cell-based
# applied-conditions: 18 to 20 h at 37° C., read-out: MIC Pseud. aerug. Hbg.
Recorded MIC, one value per entry.

molecule	MIC, µg/mL
NS(=O)(=O)c1ccc(Nc2ncc(NC(=O)NC(C(=O)N[C@@H]3C(=O)N4C(C(=O)O)=C(CSc5nnnn5CC(=O)O)CS[C@H]34)c3ccc(O)cc3)c(O)n2)cc1 (stereo partly drawn) [Compound 5]	8
Cn1c(SCC2=C(C(=O)O)N3C(=O)[C@@H](NC(=O)C(NC(=O)Nc4cnc(Nc5ccc(S(N)(=O)=O)cc5)nc4O)c4ccc(O)cc4)[C@H]3SC2)nnc(O)c1=O (stereo partly drawn) [Compound 16]	8
C[S+]([O-])CCn1nnnc1SCC1=C(C(=O)O)N2C(=O)[C@@H](NC(=O)C(NC(=O)Nc3cnc(Nc4ccc(S(N)(=O)=O)cc4)nc3O)c3ccc(O)cc3)[C@H]2SC1 (stereo partly drawn) [Compound 21]	8

---

# System: E. coli R+TEM (β-lactamase carrier)
# method-description: In vitro serial dilution test in the microtiter system (MIC), E. coli R+TEM
# Assay type: cell-based
# applied-conditions: Escherichia coli, read-out: MIC E. coli R + TEM

molecule	MIC [µg/mL]
NS(=O)(=O)c1ccc(Nc2ncc(NC(=O)NC(C(=O)N[C@@H]3C(=O)N4C(C(=O)O)=C(CSc5nnnn5CCO)CS[C@H]34)c3ccc(O)cc3)c(O)n2)cc1 (stereo partly drawn) [Compound 7]	4
Cn1c(SCC2=C(C(=O)O)N3C(=O)[C@@H](NC(=O)C(NC(=O)Nc4cnc(Nc5ccc(S(N)(=O)=O)cc5)nc4O)c4ccc(O)cc4)[C@H]3SC2)nnc(O)c1=O (stereo partly drawn) [Compound 16]	4
NS(=O)(=O)c1ccc(Nc2ncc(NC(=O)NC(C(=O)N[C@@H]3C(=O)N4C(C(=O)O)=C(CSc5nnnn5CC(=O)O)CS[C@H]34)c3ccc(O)cc3)c(O)n2)cc1 (stereo partly drawn) [Compound 5]	32
CS(=O)(=O)CCn1nnnc1SCC1=C(C(=O)O)N2C(=O)[C@@H](NC(=O)C(NC(=O)Nc3cnc(Nc4ccc(S(N)(=O)=O)cc4)nc3O)c3ccc(O)cc3)[C@H]2SC1 (stereo partly drawn) [Compound 30]	8
CO/N=C(\C(=O)N[C@@H]1C(=O)N2C(C(=O)O)=C(COC(N)=O)CS[C@H]12)c1ccco1 [Cefuroxim, reference compound]	4
Cc1nnc(SCC2=C(C(=O)O)N3C(=O)[C@@H](NC(=O)Cn4cnnn4)[C@H]3SC2)s1 [Cephazolin, reference compound]	4

---

Entries with their measured MIC, system Staphylococcus aureus SG 511:

compound	MIC, µg/mL
Cn1c(SCC2=C(C(=O)O)N3C(=O)[C@@H](NC(=O)C(NC(=O)Nc4cnc(Nc5ccc(S(N)(=O)=O)cc5)nc4O)c4ccc(O)cc4)[C@H]3SC2)nnc(O)c1=O (some centres unmarked)	0.12
CS(=O)(=O)CCn1nnnc1SCC1=C(C(=O)O)N2C(=O)[C@@H](NC(=O)C(NC(=O)Nc3cnc(Nc4ccc(S(N)(=O)=O)cc4)nc3O)c3ccc(O)cc3)[C@H]2SC1 (some centres unmarked)	2
CS(=O)(=O)NCCn1nnnc1SCC1=C(C(=O)O)N2C(=O)[C@@H](NC(=O)C(NC(=O)Nc3cnc(Nc4ccc(S(N)(=O)=O)cc4)nc3O)c3ccc(O)cc3)[C@H]2SC1 (some centres unmarked)	2
NS(=O)(=O)c1ccc(Nc2ncc(NC(=O)NC(C(=O)N[C@@H]3C(=O)N4C(C(=O)O)=C(CSc5nnnn5CC(=O)O)CS[C@H]34)c3ccc(O)cc3)c(O)n2)cc1 (some centres unmarked)	4
CC(=O)NCCn1nnnc1SCC1=C(C(=O)O)N2C(=O)[C@@H](NC(=O)C(NC(=O)Nc3cnc(Nc4ccc(S(N)(=O)=O)cc4)nc3O)c3ccc(O)cc3)[C@H]2SC1 (some centres unmarked)	2
